# Test system: COLO 205
# protocol-notes: NCI tumour cell line growth inhibition, 48 h
The source made the active and inactive calls. Cut-off read from the data, not from the text of the source: active = GI50 up to about 1.1 µM and inactive = higher.
Please go through the items and note down their GI50.

Incoming: What value of GI50 has been recorded for this entry: Cc1ccc(S(=O)(=O)N/N=C(\c2nc3ccc([N+](=O)[O-])cc3nc2O)C(O)c2ccccc2Cl)cc1 (stereo not given)
Outgoing: > 100 µM (inactive)

Incoming: I am curious: what GI50 value has been reported for `O=[N+]([O-])/C(Cl)=C(/C(Cl)=C(Cl)Cl)N1CCCCC1` ?
Outgoing: 10 µM (inactive)

Incoming: Returns the measured GI50 for the input compound. Input: `O=C1c2ccccc2-c2c1c(-c1ccc(F)cc1)nc1ccc3ccccc3c21`
Outgoing: > 100 µM (inactive)

Incoming: Fill in: GI50 of `O=C1C(Cl)=C(Cl)C(=O)N1c1ccc(Cl)c(Cl)c1Cl` is ___
Outgoing: 29.9 µM (inactive)

Incoming: Record request: GI50 value, item CC1(C)OCC(C2OC(OC(=O)c3ccc(C(F)(F)F)cc3)C3OC(C)(C)OC23)O1 (stereo not given)
Outgoing: > 77.4 µM (inactive)

###

# Test system: ACHN
# protocol-notes: NCI tumour cell line growth inhibition, 48 h
Active and inactive are the calls of the source. Rule as the data show it: active = GI50 up to about 1.1 µM and inactive = higher.
Exercise: state measured GI50 for each of the compounds provided.

Incoming: Fill in the blank: the reported GI50 of `O=C(CNc1ccc(Cl)cc1)Nn1c(-c2ccccc2)nc2ccccc2c1=O` is ____.
Outgoing: 8.89 µM (inactive)

Incoming: Quick check: GI50 of `O=c1[nH]c2c(C(F)(F)F)c(Cl)c(-c3ccccc3)nc2o1` ?
Outgoing: 65.5 µM (inactive)

Incoming: Name the recorded GI50 for COc1ccccc1NC(=O)C(=O)C1C(=O)Nc2ccccc2[S+]1[O-] (stereo not given) .
Outgoing: > 100 µM (inactive)

Incoming: Any idea what GI50 was measured for `OC(C/C(=N\N1CCCCC1)c1cccs1)(C(F)(F)F)C(F)(F)F` ?
Outgoing: > 10 µM (inactive)

Incoming: Which value of GI50 has been reported for `O=C(O)c1ccc(Nc2nc3ccc(C(F)(F)F)cc3nc2-c2ccccc2)cc1` in the records?
Outgoing: 32.9 µM (inactive)

Incoming: # GI50 lookup, item `COC(=O)C#Cc1cccc(OC)c1OC`
Outgoing: 60 µM (inactive)

Incoming: Item COC(=O)C1(C)C=CC(=O)C2(C)C1C(O)C1OC3CC(c4ccoc4)C(C)=C3C1(C)C2CC(=O)O (stereo not given) has what recorded GI50?
Outgoing: > 100 µM (inactive)

Incoming: For the compound `Cc1ccc(C(=O)O)cc1NC(=O)c1cc(/C=C/c2ccccc2)[nH]c(=S)n1` , what GI50 is on record?
Outgoing: > 89.9 µM (inactive)

Incoming: Fill in the blank: the reported GI50 of `COc1cc2c(cc1OCCCOc1cc(-c3ccc(F)cc3)nc(C)n1)N=C[C@@H]1CCCN1C2=O` is ____.
Outgoing: 16.1 µM (inactive)

Incoming: Endpoint output: GI50 of C[C@]12CC[C@H](OCCC#N)CC1=CC[C@@H]1C2CC[C@]2(C)/C(=N/OCCC#N)CCC12 (stereo not given in full) . Value?
Outgoing: 16.7 µM (inactive)

###

# Tested on: UO-31
# protocol-notes: NCI tumour cell line growth inhibition, 48 h
Active and inactive are the calls of the source. Cut-off read from the data, not from the text of the source: active = GI50 up to about 1.1 µM and inactive = higher.
Return exactly one item of active, inactive

Incoming: // outcome(item) with item = `COc1ccc(/N=N/c2c(-c3ccccc3)nn(C(=O)CC(=O)Nc3cccc(Cl)c3)c2-c2ccccc2)cc1`
Outgoing: inactive

Incoming: Test call for this compound, please: `CC1=NN2C(=N)/C(=C/c3ccccc3)C(=O)N=C2S1`
Outgoing: inactive

Incoming: Assay result, entry `OC(C/C(=N\N1CCCCC1)c1cccs1)(C(F)(F)F)C(F)(F)F` — outcome?
Outgoing: inactive

Incoming: Per the assay record, what outcome was assigned to `CCCCc1ccc(N2C(=O)c3cccnc3S2(=O)=O)cc1` ?
Outgoing: inactive

Incoming: Which outcome did this test record for the compound CCCCCCCCCCCCCCCCCCNc1ccn(C2OC(COP(=O)(O)O)C(O)C2O)c(=O)n1 (centres undefined) ?
Outgoing: inactive

Incoming: Per the assay record, what outcome was assigned to `CCCCOc1ccc(OCCCCCCCCCC[N+](C)(C)C)cc1` ?
Outgoing: inactive

Incoming: Per the records of this test, what outcome belongs to `CN(C)CCCNCc1cccc2ccccc12` ?
Outgoing: inactive

Incoming: Per the records of this test, what outcome belongs to `O=Cc1c[nH]c2c(=O)[nH]cnc12` ?
Outgoing: inactive

Incoming: Please share the test call associated with COc1ccc(C2N(c3ccc(F)c([N+](=O)[O-])c3)C(=O)N3C(c4ccc(OC)cc4)N(c4ccc(F)c([N+](=O)[O-])c4)C(=O)N23)cc1 (centres undefined) .
Outgoing: inactive

Incoming: # lookup: test call for `CC(C)N(c1cc2c(cc1F)c(=O)c(C(=O)O)cn2-c1ccc(N2CCN(C)CC2)cn1)C(C)C`
Outgoing: inactive

Incoming: # outcome recorded in this test, key = `O=C(O)c1ccc(Nc2nc3ccc(C(F)(F)F)cc3nc2-c2ccccc2)cc1`
Outgoing: inactive

Incoming: Tell me the assay call for CC(NC(=O)CNP(=O)(c1ccccc1)c1ccccc1)C(=O)NC(Cc1ccccc1)C(=O)OCc1ccccc1 (centres undefined) please.
Outgoing: inactive

Incoming: Please indicate how the test categorized `CCCNc1c(Cl)cc(Cl)c2[nH]c3ccccc3c(=O)c12` .
Outgoing: inactive

Incoming: Can you look up the reported call for `CC(=O)O[C@H]1C(=O)[C@@]2(C)[C@H]([C@H](OC(=O)c3ccccc3)[C@]3(O)C[C@H](OC(=O)[C@H](O)[C@@H](NC(=O)c4ccccc4)C4CCCCC4)C(C)=C1C3(C)C)[C@]1(OC(C)=O)CO[C@@H]1C[C@@H]2O` for me?
Outgoing: active

Incoming: Test call, this compound: `CCn1c(=O)c2nc(SC)sc2n(-c2ccc(C)cc2)c1=O`
Outgoing: inactive

Incoming: # outcome recorded in this test, key = `CCOC(=O)C(C(=O)OCC)C(=O)c1ccccc1C(=O)c1ccccc1`
Outgoing: inactive

Incoming: What did this assay record as the result for C=CCC1(CN(C)C)CC/C(=C\c2ccc(Cl)cc2)C1=O (centres undefined) ?
Outgoing: inactive

Incoming: Assay outcome for `O=C(Cc1cccs1)N[C@@H]1C(=O)N2C(C(=O)OC(c3ccccc3)c3ccccc3)=C(CO)CS[C@H]12` : what was it?
Outgoing: inactive

Incoming: Check the results log: what was the call for `CC1=NN(C(=O)c2ccc(Cl)cc2)C(=O)/C1=C/c1cccc(O)c1` ?
Outgoing: inactive

###

# Tested on: SNB-19
# protocol-notes: NCI tumour cell line growth inhibition, 48 h
Activity calls are given as the source filed them. No stated cut-off is given here; in the data, active = GI50 up to about 1.1 µM and inactive = higher.
Allowed answers: active, inactive

Incoming: Answer briefly: the call reported for `O=c1[nH]c2c(S)nc(O)nc2n1-c1ccccc1` in this assay.
Outgoing: inactive

Incoming: I would be grateful if you could indicate the recorded call for `O=C(N/C=C/C=C/Sc1ccccc1)OCc1ccccc1` .
Outgoing: inactive

Incoming: Can you look up the reported call for CC(NS(=O)(=O)c1ccc(Cl)cc1)C(=O)O (stereo not given) for me?
Outgoing: inactive

Incoming: Record lookup: outcome of this test for `C#CCn1c(=O)c2cccnc2n(CC#C)c1=O` ?
Outgoing: inactive

Incoming: Hi, do you know how `OCCOCCO[P+]1(OCCOCCO)n2c3ccc2C(c2ccccc2)=C2C=CC(=N2)C(c2ccccc2)=c2ccc(n21)=C(c1ccccc1)C1=NC(=C3c2ccccc2)C=C1` came out in this test?
Outgoing: active

Incoming: Please state the recorded outcome for this molecule: `N#Cc1c(-c2ccc(Cl)cc2)cc(-c2ccc(Nc3ccnc4cc(C(F)(F)F)ccc34)cc2)[nH]c1=O`
Outgoing: inactive

Incoming: Each molecule tested received a call. Report the one for `CNC(=S)N/N=C(\C(=N/NC(=S)NC)c1ccccn1)c1ccccn1` .
Outgoing: inactive

Incoming: Test call for this molecule, please: `COC(=O)CCSC(=O)Nc1ccccc1Cl`
Outgoing: inactive

Incoming: Recorded test call requested for COc1cccc(C2c3cc4c(cc3OC(NNc3ccccc3)C2C)OCO4)c1OC (stereo not given)
Outgoing: inactive

Incoming: I would be grateful if you could indicate the recorded call for `CCCCC/C=C\C=C\CCCCCCCCC(=O)OC` .
Outgoing: inactive

###

Hi there, I'd appreciate the recorded GI50 for every entry that follows.
# System: Hs-578T
# protocol-notes: NCI tumour cell line growth inhibition, 48 h
Calls of active or inactive are those of the source. Rule as the data show it: active = GI50 up to about 1.1 µM and inactive = higher.

Incoming: Consider the compound shown here: `CCOC(=O)Nc1[nH]cc(-c2ccccc2)c1C#N` What is its recorded GI50?
Outgoing: > 100 µM (inactive)

Incoming: # GI50 lookup, item `CCOC(=O)C(=[N+]=[N-])C(=O)CN1C(=O)c2ccccc2C1=O`
Outgoing: > 100 µM (inactive)

Incoming: # query: GI50 of entry COc1ccccc1NC(=O)CC(=O)N1N=C(C)C(/N=N/c2ccc(C(=O)O)cc2)C1=O (centres undefined)
Outgoing: > 100 µM (inactive)

Incoming: // GI50 lookup, key: `O=C1C(Cl)=C(N2CCN(CCOCCO)CC2)C(=O)c2ncccc21`
Outgoing: > 10 µM (inactive)

Incoming: Given COc1cc2c(cc1OC)C(C)N(C)c1c-2c(OC(C)=O)cc2cc(OC)c(OC)cc12 (centres undefined) , state its recorded GI50.
Outgoing: 19.1 µM (inactive)

Incoming: # get_value(readout='GI50', item= `CCOC(=O)Cn1nnc2ccc(Nc3nc4ccccc4nc3C(=O)OCC)cc21` )
Outgoing: 33.5 µM (inactive)

Incoming: Item under review: CCCCCCCCCCCCCCCCCCNc1ccn(C2OC(COP(=O)(O)O)C(O)C2O)c(=O)n1 (centres undefined) . Reported GI50?
Outgoing: > 100 µM (inactive)

Incoming: Item Cc1ccc(S(=O)(=O)NCCCCC(N)C(=O)O)cc1 (centres undefined) has what recorded GI50?
Outgoing: > 100 µM (inactive)

Incoming: What value of measured GI50 is listed for `O=C(CCc1cc(O)ccc1O)OCCc1ccccc1` ?
Outgoing: 16.1 µM (inactive)

Incoming: Entry under review: `CCOC(=O)c1ccc(/N=C2\Sc3nc4ccccc4n3\C2=N\c2ccc(C(=O)OCC)cc2)cc1` . Reported GI50?
Outgoing: 22.6 µM (inactive)

Incoming: I am curious: what GI50 value has been reported for `Cc1cc(-c2nc3ccccc3s2)ccc1NS(=O)(=O)O` ?
Outgoing: > 6.28 µM (inactive)

Incoming: Please look up its GI50: `COC(=O)c1c(O)c2c(c3c1OC(C)(C)CC3)OC(C)(C)CC2`
Outgoing: 20.8 µM (inactive)

Incoming: Fill in: GI50 of `Cc1cc(-c2nc3ccccc3s2)ccc1N` is ___
Outgoing: > 100 µM (inactive)

Incoming: Given `COC(=O)C#Cc1cccc(OC)c1OC` , state its recorded GI50.
Outgoing: 37.3 µM (inactive)
